For each of the sequences below, state its pKd.
- Tested target: Protein A, recombinant (UniProt P38507)
- Procedure details: SPR
- Assay conditions: aptamer immobilized; 100 mM NaCl, 20 mM Tris-HCl pH 7.6, 10 mM MgCl2, 5 mM KCl, 1 mM CaCl2, 0.005% surfactant P20, 21 °C (SPR Biacore X100)
Answers are plain numbers, as −log10 of the molar value.

Chain	Tested target	pKd
ATACCAGCTTATTCAATTGCGCACCACGGGAGTTGGCCACATTTGGAGTTGTTTTTGCACAATCGTAATCAGTTAG [PA-C10 (3'-biotin)]	Protein A, recombinant (UniProt P38507)	5.56
ATACCAGCTTATTCAATTAGGCCAGATGAGGGGTGCCCATGGCGGGGTGGCTGCTCCAACAATCGTAATCAGTTAG [PA-C8 (3'-biotin)]	Protein A, recombinant (UniProt P38507)	6.35

Qu. Consider the sequence ATACCAGCTTATTCAATTAGCAACATGAGGGGGGATAGAGGGGGTGGGTTCTCTCGGCTACAATCGTAATCAGTTAG [PA-C7] and give its measured pKd.
Ans. 5.79

###

- Tested target: Protein A, native, biotinylated (Staphylococcus aureus)
- Procedure details: SPR
- Assay conditions: protein immobilized, aptamer as analyte; 100 mM NaCl, 20 mM Tris-HCl pH 7.6, 10 mM MgCl2, 5 mM KCl, 1 mM CaCl2, 0.005% surfactant P20, 21 °C (SPR Biacore X100)
Recorded endpoint: Kd (µM)
Numbers only, in µM.

Qu. Under Protein A, native, biotinylated (Staphylococcus aureus): Kd value of ATACCAGCTTATTCAATTAGCAACATGAGGGGGATAGAGGGGGTGGGTTCTCTCGGCTACAATCGTAATCAGTTAG [PA#2/8 (unmodified)] ?
Ans. 3.73

###

- Tested target: Protein A, native (Staphylococcus aureus) (UniProt P38507)
- Procedure details: SPR
- Assay conditions: aptamer immobilized; 100 mM NaCl, 20 mM Tris-HCl pH 7.6, 10 mM MgCl2, 5 mM KCl, 1 mM CaCl2, 0.005% surfactant P20, 21 °C (SPR Biacore X100)
Recorded endpoint: Kd
Include the unit after the number when you answer.

These solved cases illustrate the format of a correct answer.
Chain	Tested target	Kd
ATACCAGCTTATTCAATTAGCAACATGAGGGGGATAGAGGGGGTGGGTTCTCTCGGCTACAATCGTAATCAGTTAG [PA#2/8 (3'-biotin)]	Protein A, native (Staphylococcus aureus) (UniProt P38507)	20 nM
ATACCAGCTTATTCAATTAGGCCAGATGAGGGGTGCCCATGGCGGGGTGGCTGCTCCAACAATCGTAATCAGTTAG [PA-C8 (3'-biotin)]	Protein A, native (Staphylococcus aureus) (UniProt P38507)	99 nM
ATACCAGCTTATTCAATTGGGCACCACGGGAGTCGGCCACATTTGGAGTTGTTTTTGCACAATCGTAATCAGTTAG [PA#14/89 (3'-biotin)]	Protein A, native (Staphylococcus aureus) (UniProt P38507)	467 nM

Now look at this one.
Qu. Consider the sequence ATACCAGCTTATTCAATTGCGCACCACGGGAGTTGGCCACATTTGGAGTTGTTTTTGCACAATCGTAATCAGTTAG [PA-C10 (3'-biotin)] and give its measured Kd.
Ans. 588 nM

###

- Tested target: Protein A, recombinant (UniProt P38507)
- Procedure details: SPR
- Assay conditions: aptamer immobilized; 100 mM NaCl, 20 mM Tris-HCl pH 7.6, 10 mM MgCl2, 5 mM KCl, 1 mM CaCl2, 0.005% surfactant P20, 21 °C (SPR Biacore X100)
Recorded endpoint: Kd (nM)
Give bare numbers, in nM.

These solved cases illustrate the format of a correct answer.
Chain	Kd [nM]
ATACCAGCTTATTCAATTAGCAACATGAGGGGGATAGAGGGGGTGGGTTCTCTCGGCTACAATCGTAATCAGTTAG [PA#2/8 (3'-biotin)]	92
ATACCAGCTTATTCAATTGGGCACCACGGGAGTCGGCCACATTTGGAGTTGTTTTTGCACAATCGTAATCAGTTAG [PA#14/89 (3'-biotin)]	2660

Qu. Consider the sequence ATACCAGCTTATTCAATTAGCAACATGAGGGGGATGGAGGGGGTGGGTTCTCTCGGCTACAATCGTAATCAGTTAG [PA-C4] and give its measured Kd.
Ans. 222
